This listing pairs compounds with measured growth rescue.
Assay: restored growth of temperature-sensitive Mot1-301 yeast – S. cerevisiae, ATP luminescence, 38.5C, SUMOylation pathway inhibitor project, primary screen (AID 2716);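 also: OY570 slx delta 5 strain wells were the positive control but not used for scaling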
Details: S. cerevisiae Mot1-301 growth rescue, at 18.8 µM, stronger effect = higher value, percent above DMSO median, 100 means doubled
In all, about 320,000 compounds went through this assay and about 3,300 (1%) were called active. The sample holds actives, similar compounds and a random draw of the others, so the mix is not that of the screen.

For orientation, consider the following solved cases.
In [3]: df
Out[3]:
                                   compound             result
0  Cc1ccc(Cc2nnc(SCC(=O)Nc3ccc(C)cc3C)[nH]c2=O)cc1   3.03% (inactive)
1  CC(OC(=O)c1ccc(Cl)cc1O)C(=O)NCCC1=CCCCC1 (stereo not drawn)   17.1% (inactive)
2                   O=c1ccn(Cc2ccccc2Cl)cc1   1.62% (inactive)
3  Cc1ccc2c(c1)C(O)(CC(=O)c1cccc(-n3cccc3)c1)C(=O)N2 (stereo not drawn)  -2.84% (inactive)
4       O=c1c2cc([N+](=O)[O-])ccc2nc2n1CCC2     12% (inactive)
5        CC(C)Cc1nc(N2CCOCC2)c(C#N)c2c1CCC2      469% (active)
6  CN(c1ccccc1)S(=O)(=O)c1ccc(C(=O)N2CCN(c3ccccc3Cl)CC2)cc1   19.5% (inactive)
7  CC(=O)c1ccc(N2CCN(C(=O)c3ccc4nc[nH]c4c3)CC2)cc1   10.1% (inactive)

Check the records and state growth rescue for `COc1ccc(N(C)S(=O)(=O)c2cccc3nsnc23)cc1` -12.6% (inactive)

Please give the documented growth rescue of `N#CC(C#N)=CN=c1ccn(Cc2ccc(Cl)cc2Cl)cc1` 813% (active)

Report growth rescue, nothing else, for this compound: `CCCCNC(=O)c1ccccc1NC(=O)C1=C(C)OCCS1` 548% (active)

Please give the documented growth rescue of `O=C(CSc1nnc(-c2ccncc2)o1)Nc1cccc(Cl)c1` -11.5% (inactive)

For the compound CC1=NC2(CCCc3c2no[n+]3[O-])N(O)C1(C)C (stereo not drawn) , give its reported growth rescue. 465% (active)

* * *

Assay: restored growth of temperature-sensitive Mot1-301 yeast – S. cerevisiae, ATP luminescence, 38.5C, SUMOylation pathway inhibitor project, primary screen (AID 2716);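 also: OY570 slx delta 5 strain wells were the positive control but not used for scaling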
Conditions: S. cerevisiae Mot1-301 growth rescue, at 18.8 µM, percent above DMSO median, 100 means doubled
The whole screen tested about 320,000 compounds, of which about 3,300 (1%) were called active.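 Rule for the calls: active = every valid replicate shows activation above 250% relative to neutral control wells; inactive = the rest, any valid replicate at or below 250%.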 What follows is part of a selection rich in actives, with near analogues and random picks from the rest.
Output constraint: value belongs to y for active, n for inactive

For orientation, consider the following solved cases.
>>> print(df.to_string())
                                   compound  class_name
0  CCn1c(SCC(=O)Nc2ccc(S(=O)(=O)Nc3onc(C)c3C)cc2)nnc1-c1ccccc1           n
1  COCCCNC(=O)C1CCC(CNS(=O)(=O)c2ccc(OC)cc2)CC1 (stereo not given)           n
2       COc1cccc(/C=N/NC(=O)C(=O)N2CCCC2)c1           n
3  O=C(CSc1nc2[nH]c(=O)[nH]c(=O)c2s1)Nc1cccc(F)c1           n

Turning to the following compound.
// param item: `COc1ccccc1N1CCN(C(=O)C(=O)N/N=C/c2ccccc2F)CC1` ; yields the recorded call y

Where do the numbers come from? From PubChem BioAssay AID2716.
